System: Nucleic Acid
Assay: % complex formation of cellular protein -DNA complex at a concentration of 10 uM
Assay type: functional
Conditions: Homo sapiens
reported endpoint: Complex formation

// known answers, use as guide
COc1cc([C@@H]2c3cc4c(cc3[C@@H](NCc3ccc(C#N)cc3)[C@H]3COC(=O)[C@H]23)OCO4)cc(OC)c1O :: 284%
COc1cc([C@@H]2c3cc4c(cc3[C@@H](NCc3ccc(C(F)(F)F)cc3)[C@H]3COC(=O)[C@H]23)OCO4)cc(OC)c1O :: 99%
COc1cc([C@@H]2c3cc4c(cc3[C@@H](NCc3cccc(Cl)c3)[C@H]3COC(=O)[C@H]23)OCO4)cc(OC)c1O :: 159%
COc1cc([C@@H]2c3cc4c(cc3[C@@H](NCc3cccc([N+](=O)[O-])c3)[C@H]3COC(=O)[C@H]23)OCO4)cc(OC)c1O :: 130%
COc1cc([C@@H]2c3cc4c(cc3[C@@H](Nc3ccc(F)cc3)[C@H]3COC(=O)[C@H]23)OCO4)cc(OC)c1O :: 213%

Ask: What value of Complex formation on Nucleic Acid does COc1cc([C@@H]2c3cc4c(cc3[C@@H](NCc3ccc(F)cc3)[C@H]3COC(=O)[C@H]23)OCO4)cc(OC)c1O have?
Reply: 169%

Ask: What value of Complex formation on Nucleic Acid does COc1cc([C@@H]2c3cc4c(cc3[C@@H](NCc3ccccc3F)[C@H]3COC(=O)[C@H]23)OCO4)cc(OC)c1O have?
Reply: 126%

Ask: What value of Complex formation on Nucleic Acid does COc1cc([C@@H]2c3cc4c(cc3[C@@H](NCc3cccc(F)c3)[C@H]3COC(=O)[C@H]23)OCO4)cc(OC)c1O have?
Reply: 216%

Ask: What value of Complex formation on Nucleic Acid does COc1cc([C@@H]2c3cc4c(cc3[C@@H](NCc3cccc(N)c3)[C@H]3COC(=O)[C@H]23)OCO4)cc(OC)c1O have?
Reply: 191%

Ask: What value of Complex formation on Nucleic Acid does COc1cc([C@@H]2c3cc4c(cc3[C@@H](NCc3ccc([N+](=O)[O-])cc3)[C@H]3COC(=O)[C@H]23)OCO4)cc(OC)c1O have?
Reply: 216%

* * *

Parameter ID50: see the listing below.
Molecular target: DNA topoisomerase II (Homo sapiens) (UniProt P11388+Q02880)
Experiment: Inhibition of human DNA topoisomerase II
Type: protein assay
Return type: number; implicit unit µM.

// known answers, use as guide
COc1cc([C@@H]2c3cc4c(cc3[C@@H](NCc3ccc([N+](=O)[O-])cc3)[C@H]3COC(=O)[C@H]23)OCO4)cc(OC)c1O :: 50
COc1cc([C@@H]2c3cc4c(cc3[C@@H](NCc3cccc(C#N)c3)[C@H]3COC(=O)[C@H]23)OCO4)cc(OC)c1O :: 25
COc1cc(CN[C@@H]2c3cc4c(cc3[C@@H](c3cc(OC)c(O)c(OC)c3)[C@H]3C(=O)OC[C@@H]32)OCO4)cc(OC)c1 :: 100

Ask: What value of ID50 on DNA topoisomerase II (Homo sapiens) (UniProt P11388+Q02880) does COc1cc([C@@H]2c3cc4c(cc3[C@@H](NCc3ccccc3[N+](=O)[O-])[C@H]3COC(=O)[C@H]23)OCO4)cc(OC)c1O have?
Reply: 50

Ask: What value of ID50 on DNA topoisomerase II (Homo sapiens) (UniProt P11388+Q02880) does COc1cc([C@@H]2c3cc4c(cc3[C@@H](NCc3ccc(F)cc3)[C@H]3COC(=O)[C@H]23)OCO4)cc(OC)c1O have?
Reply: 50

Ask: What value of ID50 on DNA topoisomerase II (Homo sapiens) (UniProt P11388+Q02880) does COc1cc([C@@H]2c3cc4c(cc3[C@@H](NCc3cccc(N)c3)[C@H]3COC(=O)[C@H]23)OCO4)cc(OC)c1O have?
Reply: 25

Ask: What value of ID50 on DNA topoisomerase II (Homo sapiens) (UniProt P11388+Q02880) does COc1cc([C@@H]2c3cc4c(cc3[C@@H](NCc3ccccc3F)[C@H]3COC(=O)[C@H]23)OCO4)cc(OC)c1O have?
Reply: 100
